Where these numbers come from: patent US20210330611A1

Could you please report measured IC50 for the items listed next?
# Tested on: fibrin-induced microglia activation
# Assay explanation: Image-based assay of fibrin-induced microglia activation (HTS and dose response)
# Type: cell-based, rat
# Test context: Rattus norvegicus, Microglia, fibrin-induced microglia activation, dose response; read-out: Fibrin IC50 (uM) (Suppl. Table 7)
Field format: number, assumed µM, no unit text.

Look up and report measured IC50 for this entry: CCCCC(=O)O[C@]1(C(=O)CO)CC[C@H]2[C@@H]3CCC4=CC(=O)CC[C@]4(C)[C@H]3[C@@H](O)C[C@@]21C [Hydrocortisone valerate, reference compound]
0.05

Look up and report measured IC50 for this entry: CCCCC(=O)O[C@]1(C(=O)CO)[C@@H](C)C[C@H]2[C@@H]3CCC4=CC(=O)C=C[C@]4(C)[C@@]3(F)[C@@H](O)C[C@@]21C [Betamethasone valerate, reference compound]
20

----------
Could you please report measured LPS % cell toxicity for the items listed next?
# Test system: primary rat microglia
# Test context: rat
Field format: number, assumed %, no unit text.

Look up and report measured LPS % cell toxicity for this entry: COC(=O)Nc1nc2ccc(C(=O)c3ccccc3)cc2[nH]1 [Mebendazole, reference compound]
2

Look up and report measured LPS % cell toxicity for this entry: CCN(CC)CCOc1ccc(C(=C(Cl)c2ccccc2)c2ccccc2)cc1
0

Look up and report measured LPS % cell toxicity for this entry: CC(O)(P(=O)(O)O)P(=O)(O)O
0

Look up and report measured LPS % cell toxicity for this entry: CCc1ccc(CCOc2ccc(CC3SC(=O)NC3=O)cc2)nc1 (stereo not drawn)
1

Look up and report measured LPS % cell toxicity for this entry: Cc1ccccc1C(OCCN(C)C)c1ccccc1 (stereo not drawn)
0

Look up and report measured LPS % cell toxicity for this entry: NC[C@H]1CC[C@H](C(=O)O)CC1
0

Look up and report measured LPS % cell toxicity for this entry: C[C@H]1[C@H](OC(=O)CCC(=O)O)O[C@@H]2O[C@@]3(C)CC[C@H]4[C@H](C)CC[C@@H]1[C@@]24OO3 [Artesunate, reference compound]
0

Look up and report measured LPS % cell toxicity for this entry: CC(=O)Nc1nnc(S(N)(=O)=O)s1 [Acetazolamide]
1

Look up and report measured LPS % cell toxicity for this entry: CN(C)CC[C@@H](c1ccc(Cl)cc1)c1ccccn1
0

----------
# Test system: fibrin-induced microglia activation
# Assay explanation: Image-based assay of fibrin-induced microglia activation (HTS and dose response)
# Assay type: cell-based, rat
# Test context: Rattus norvegicus, Microglia, read-out: Fibrin % inhibition
Measurement label: inhibition at 10 µM (%)
Field format: number, assumed %, no unit text.

Look up and report measured inhibition at 10 µM for this entry: C[n+]1ccccc1/C=N/O [Pralidoxime]
-12

Look up and report measured inhibition at 10 µM for this entry: O=C(Nc1ccc(C(=O)O)c(O)c1)c1ccccc1 [Benzoylpas]
107

Look up and report measured inhibition at 10 µM for this entry: Cc1cccc(C)c1OCC(C)N (stereo not shown) [Mexiletine]
2

Look up and report measured inhibition at 10 µM for this entry: Oc1ccc2ccccc2c1 [Beta-naphthol]
-17

Look up and report measured inhibition at 10 µM for this entry: COc1ccc(O)cc1 [Mequinol, reference compound]
98

Look up and report measured inhibition at 10 µM for this entry: NCCCC(O)(P(=O)(O)O)P(=O)(O)O [Alendronic acid]
5

Look up and report measured inhibition at 10 µM for this entry: C[C@H](CCC(=O)O)[C@H]1CC[C@H]2[C@@H]3[C@H](O)C[C@@H]4C[C@H](O)CC[C@]4(C)[C@H]3C[C@H](O)[C@]12C [Cholic Acid]
-31

Look up and report measured inhibition at 10 µM for this entry: Nc1nc2ccc(OC(F)(F)F)cc2s1 [Riluzole]
0

Look up and report measured inhibition at 10 µM for this entry: NNc1nncc2ccccc12 [Hydralazine]
-13

Look up and report measured inhibition at 10 µM for this entry: CN1CCN(CCCN2c3ccccc3Sc3ccc(Cl)cc32)CC1 [Prochlorperazine]
6
